Target: Mitogen-activated protein kinase 9 (Homo sapiens)
Assay: Inhibition of His6-tagged JNK2 (unknown origin) assessed as reduction in c-Jun phosphorylation using GST-c-Jun (1 to 79 residues) and [gamma32P]ATP incubated for 1 hr by scintillation counting assay
pIC50: −log10 of the molar value.
propertyLabel: pIC50

Use these answered entries as a reference point.
compound	pIC50
O=C(NCC1CCCC[C@H]1O)c1ccc2[nH]nc(-c3ccc(F)cc3)c2c1 (some centres undefined)	5.00 to 6.00
O=C(Nc1ccc2[nH]nc(-c3ccc(F)cc3)c2c1)C1CC1	≥ 5.00
CN(C)CCCOc1ccc(-c2n[nH]c3ccc(-c4nnn[nH]4)cc23)cc1	5.00 to 6.30
Fc1ccc(-c2n[nH]c3ccc(-c4ncc[nH]4)cc23)cc1	5.00 to 6.00
COc1ccc(-c2n[nH]c3ccc([N+](=O)[O-])cc23)cc1	≥ 5.00
COC(=O)c1ccc(NC(=O)c2ccc3[nH]nc(-c4ccc(F)cc4)c3c2)cc1	≥ 5.00
O=C(Nc1ccc2[nH]nc(-c3ccc(F)cc3)c2c1)c1ccco1	5.00 to 6.00
Cc1ncc(CC(=O)Nc2cccc(-c3n[nH]c4ccc(C(N)=O)cc34)c2)s1	5.00 to 6.00
O=C(O)CCNC(=O)c1ccc2[nH]nc(-c3ccc(F)cc3)c2c1	5.00 to 6.00
NCCNC(=O)c1ccc2[nH]nc(-c3ccc(F)cc3)c2c1	≥ 5.00

pIC50 recorded for this compound, `CC(=O)O[C@@H](C)C(=O)Nc1cccc(-c2n[nH]c3ccc(C(N)=O)cc23)c1` , is 5.00 to 6.30

Given item `CC(C)COc1ccc(-c2n[nH]c3ccc(-c4nnn[nH]4)cc23)cc1` , the value recorded as its pIC50 is 5.00 to 6.00

----------
Molecular target: Mitogen-activated protein kinase 9 (Homo sapiens, UniProt P45984)
Sequence (P45984 whole entry, the tested form may be a part): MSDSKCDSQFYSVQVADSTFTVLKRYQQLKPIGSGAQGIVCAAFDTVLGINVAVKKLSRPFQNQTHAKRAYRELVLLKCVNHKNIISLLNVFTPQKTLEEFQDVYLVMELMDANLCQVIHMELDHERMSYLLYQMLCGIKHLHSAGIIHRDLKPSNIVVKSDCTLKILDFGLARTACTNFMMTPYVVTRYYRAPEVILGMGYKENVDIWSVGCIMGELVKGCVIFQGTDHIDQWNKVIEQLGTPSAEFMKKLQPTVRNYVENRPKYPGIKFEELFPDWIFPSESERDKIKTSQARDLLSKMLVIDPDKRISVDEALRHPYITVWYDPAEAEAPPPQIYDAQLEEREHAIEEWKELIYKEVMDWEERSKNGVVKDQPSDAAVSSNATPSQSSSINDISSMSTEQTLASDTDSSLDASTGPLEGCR
Test: Inhibition of His6-tagged JNK2 (unknown origin) assessed as reduction in c-Jun phosphorylation using GST-c-Jun (1 to 79 residues) and [gamma32P]ATP incubated for 1 hr by scintillation counting assay
propertyLabel: IC50

chemicalString	studySystem	valueObserved
CC(=O)Nc1ccc2[nH]nc(-c3ccccc3)c2c1	Mitogen-activated protein kinase 9 (Homo sapiens, UniProt P45984)	1 to 10 µM

Mitogen-activated protein kinase 9 (Homo sapiens, UniProt P45984) assay, molecule `Fc1ccc(-c2n[nH]c3ccc(-c4n[nH]c(CN5CCCCC5)n4)cc23)cc1` , recorded IC50 = 1 to 10 µM

Measured IC50 (Mitogen-activated protein kinase 9 (Homo sapiens, UniProt P45984)), entry `Oc1ccc(-c2n[nH]c3ccc(-c4ncn[nH]4)cc23)cc1` : 1 to 10 µM

Mitogen-activated protein kinase 9 (Homo sapiens, UniProt P45984) assay, molecule `CS(=O)(=O)Nc1ccc(-c2n[nH]c3ccc(-c4nc[nH]n4)cc23)cc1` , recorded IC50 = 1 to 10 µM

So the reported IC50 for `NC(=O)c1ccc2[nH]nc(-c3ccoc3)c2c1` , on Mitogen-activated protein kinase 9 (Homo sapiens, UniProt P45984), turned out to be 1 to 10 µM

Field IC50 (Mitogen-activated protein kinase 9 (Homo sapiens, UniProt P45984)), entry `CN(C)CCOc1cccc(-c2n[nH]c3ccc(-c4ncn[nH]4)cc23)c1` : 1 to 10 µM

I looked up `O=C(O)c1ccc(NC(=O)c2ccc3[nH]nc(-c4ccc(F)cc4)c3c2)cc1` and its IC50 for Mitogen-activated protein kinase 9 (Homo sapiens, UniProt P45984) was 1 to 10 µM

The value of IC50 recorded for `O=C(NCCCN1CCOCC1)c1ccc2[nH]nc(-c3ccc(F)cc3)c2c1` when tested on Mitogen-activated protein kinase 9 (Homo sapiens, UniProt P45984) reads ≤ 10 µM

Tested on Mitogen-activated protein kinase 9 (Homo sapiens, UniProt P45984): `CC(C)(NC(=O)c1cccc(-c2n[nH]c3ccc(-c4ncn[nH]4)cc23)c1)c1ccccc1` . Observed IC50: 0.5 to 10 µM

----------
Entries and their measured IC50 follow.
Molecular target: Mitogen-activated protein kinase 9 (Homo sapiens)
Assay: Inhibition of His6-tagged JNK2 (unknown origin) assessed as reduction in c-Jun phosphorylation using GST-c-Jun (1 to 79 residues) and [gamma32P]ATP incubated for 1 hr by scintillation counting assay

As a guide, the following entries are already answered.
compound	valueObserved
C[S+]([O-])c1ccc(-c2n[nH]c3ccc(-c4ncn[nH]4)cc23)cc1 (stereo unspecified)	1 to 10 µM
c1ccc(CCc2n[nH]c3ccc(-c4nnn[nH]4)cc23)cc1	1 to 10 µM
CN(C)Cc1n[nH]c(-c2ccc3[nH]nc(-c4cccc(C(=O)NC5Cc6ccccc6C5)c4)c3c2)n1	0.5 to 10 µM
O=C(Cc1ccccc1)c1ccc2[nH]nc(-c3ccc(F)cc3)c2c1	≤ 10 µM
Cc1ccc(C(=O)Nc2cccc(-c3n[nH]c4ccc(-c5nc[nH]n5)cc34)c2)cc1	1 to 10 µM
CN(C)CCNC(=O)c1ccc2[nH]nc(-c3cc4ccccc4o3)c2c1	1 to 10 µM
O=C(Nc1cccc(-c2n[nH]c3ccc(-c4nc[nH]n4)cc23)c1)c1ccco1	0.5 to 10 µM
COc1ccc(-c2n[nH]c3ccc(-c4nnn[nH]4)cc23)cc1OC	0.5 to 10 µM
Nc1ccc(-c2nnc(-c3ccc4[nH]nc(-c5ccc(F)cc5)c4c3)[nH]2)cc1	1 to 10 µM
CC(C(=O)Nc1cccc(-c2n[nH]c3ccc(C(N)=O)cc23)c1)c1ccccc1 (stereo unspecified)	1 to 10 µM

Let's switch to this compound now.
Noted for `Cc1n[nH]c(-c2ccc3[nH]nc(-c4ccc(F)cc4)c3c2)n1` : its IC50 reads 1 to 10 µM

----------
Target: Mitogen-activated protein kinase 9 (Homo sapiens, UniProt P45984)
Assay: Inhibition of His6-tagged JNK2 (unknown origin) assessed as reduction in c-Jun phosphorylation using GST-c-Jun (1 to 79 residues) and [gamma32P]ATP incubated for 1 hr by scintillation counting assay
# Lookup of reported IC50 keyed by entry

Reference set, count: 10
compound	IC50
CC(O)C(=O)Nc1cccc(-c2n[nH]c3ccc(-c4nc[nH]n4)cc23)c1 (configuration not stated)	0.5 to 10 µM
CN(C)Cc1nc(-c2ccc3[nH]nc(-c4cccc(NC(=O)[C@H](O)c5ccccc5)c4)c3c2)n[nH]1	0.5 to 10 µM
c1cc(-c2n[nH]c3ccc(-c4nnn[nH]4)cc23)cs1	0.5 to 10 µM
O=C(Nc1cccnc1)c1cccc(-c2n[nH]c3ccc(-c4nc[nH]n4)cc23)c1	0.5 to 10 µM
O=C(Nc1cccc(O)c1)c1ccc2[nH]nc(-c3ccc(F)cc3)c2c1	1 to 10 µM
NC(=O)c1ccc2[nH]nc(-c3ccc4c(c3)OCCO4)c2c1	1 to 10 µM
Fc1ccc(-c2n[nH]c3ccc(-c4nnc[nH]4)cc23)cc1	0.5 to 10 µM
COCCNc1cccc(-c2n[nH]c3ccc(C(N)=O)cc23)c1	1 to 10 µM
Cc1ccc2[nH]nc(-c3ccc(F)cc3)c2c1	≤ 10 µM
CC(=O)N1CCN(Cc2nnc(-c3ccc4[nH]nc(-c5ccc(F)cc5)c4c3)[nH]2)CC1	1 to 10 µM

The recorded IC50 for `O=[N+]([O-])c1ccc2[nH]nc(-c3ccc4ccccc4c3)c2c1` is ≤ 10 µM

Just so you know, measured IC50 for `O=C(N[C@H]1C[C@@H]1c1ccccc1)c1cccc(-c2n[nH]c3ccc(-c4nc[nH]n4)cc23)c1` came out at 0.5 to 10 µM

For record `O=C(Nc1cccc(-c2n[nH]c3ccc(-c4nc[nH]n4)cc23)c1)C(=O)c1c[nH]c2ccccc12` the listed IC50 is 1 to 10 µM

----------
Entries and their measured IC50 follow.
Target: Mitogen-activated protein kinase 9 (Homo sapiens, UniProt P45984)
Experiment: Inhibition of His6-tagged JNK2 (unknown origin) assessed as reduction in c-Jun phosphorylation using GST-c-Jun (1 to 79 residues) and [gamma32P]ATP incubated for 1 hr by scintillation counting assay

The cases that follow already have their IC50 on record.
chemicalString	valueObserved
O=C(NCCC1CCN(Cc2ccccc2)CC1)c1cccc(-c2n[nH]c3ccc(-c4nc[nH]n4)cc23)c1	0.5 to 10 µM
CN(C)CCOc1ccc(-c2n[nH]c3ccc(-c4ncn[nH]4)cc23)cc1	1 to 10 µM
O=C(Nc1cccc(-c2n[nH]c3ccc(-c4nn[nH]n4)cc23)c1)c1cccnc1	0.5 to 10 µM
CN(C)CCNC(=O)c1cccc(-c2n[nH]c3ccc(-c4ncn[nH]4)cc23)c1	0.5 to 10 µM
CCOC(=O)CCCc1nnc(-c2ccc3[nH]nc(-c4ccc(F)cc4)c3c2)[nH]1	1 to 10 µM
O=C(NC1CC1)c1cccc(-c2n[nH]c3ccc(-c4nc[nH]n4)cc23)c1	0.5 to 10 µM
c1cc(OCCCN2CCCCC2)cc(-c2n[nH]c3ccc(-c4ncn[nH]4)cc23)c1	0.5 to 10 µM
COCCOc1cccc(-c2n[nH]c3ccc(-c4nc[nH]n4)cc23)c1	1 to 10 µM
CC(C)c1cccc(-c2n[nH]c3ccc(-c4nc[nH]n4)cc23)c1	1 to 10 µM
c1ccc(COc2ccc3[nH]nc(-c4ccccc4)c3c2)cc1	≤ 10 µM

# `O=C(Nc1ccc2[nH]nc(-c3ccc(F)cc3)c2c1)c1ccccn1` with Mitogen-activated protein kinase 9 (Homo sapiens, UniProt P45984): IC50 is 1 to 10 µM

The observed IC50 for `O=C(Nc1ccc2[nH]nc(-c3ccccc3)c2c1)c1ccccn1` when tested with Mitogen-activated protein kinase 9 (Homo sapiens, UniProt P45984) stands at 1 to 10 µM
